Assay: Solubility in organic solvents
Format: physicochemical
Conditions: 25 °C, organic solvent or mixture; Form C; Ethanol; read-out: Solubility, mg/mL at 25° C.
OBSERVATION_TYPE: solubility (mg/mL)

1) COc1ccc(-c2ccc(Cn3c(CC(C)(C)C(=O)O)c(SC(C)(C)C)c4cc(OCc5ccccn5)ccc43)cc2)cn1 :: 17.1

###

Experiment: Phase 1 study in healthy human volunteers, plasma pharmacokinetics
Assay type: in vivo
Details: male, human, multiple dose phase, Day 1, 1000 mg, oral solution, read-out: Tmax (hr) AVE ± SD
OBSERVATION_TYPE: Tmax (h)

1. COc1ccc(-c2ccc(Cn3c(CC(C)(C)C(=O)O)c(SC(C)(C)C)c4cc(OCc5ccccn5)ccc43)cc2)cn1 :: 2.3

###

Assay: Phase 1 study in healthy human volunteers, plasma pharmacokinetics
Type: in vivo
Conditions: both sexes, human, single dose 600 mg, oral solution, fasted healthy subjects, read-out: Tmax (hr) AVE ± SD
OBSERVATION_TYPE: Tmax (h)

1) COc1ccc(-c2ccc(Cn3c(CC(C)(C)C(=O)O)c(SC(C)(C)C)c4cc(OCc5ccccn5)ccc43)cc2)cn1 :: 2

###

Test: in vivo
Design: species or system female Beagle dogs
Settings: female, Beagle, dog, po, 5 mg/kg
OBSERVATION_TYPE: Tmax (h)

1. COc1ccc(-c2ccc(Cn3c(CC(C)(C)C(=O)O)c(SC(C)(C)C)c4cc(OCc5ccccn5)ccc43)cc2)cn1 :: 1.7

###

Experiment: Phase 1 study in healthy human volunteers, plasma pharmacokinetics
Type: in vivo
Settings: male, human, multiple dose phase, Day 1, 150 mg, oral solution, read-out: Cmax (mM) AVE ± SD
OBSERVATION_TYPE: Cmax (mM)

1. COc1ccc(-c2ccc(Cn3c(CC(C)(C)C(=O)O)c(SC(C)(C)C)c4cc(OCc5ccccn5)ccc43)cc2)cn1 :: 0.0019

###

Test: Phase 1 study in healthy human volunteers, plasma pharmacokinetics
Type: in vivo
Conditions: both sexes, human, single dose 600 mg, oral solution, fasted healthy subjects, read-out: AUC0-24 (hr * mM) AVE ± SD
OBSERVATION_TYPE: AUC(0-t) (µM·h)

1. COc1ccc(-c2ccc(Cn3c(CC(C)(C)C(=O)O)c(SC(C)(C)C)c4cc(OCc5ccccn5)ccc43)cc2)cn1 :: 54

###

Target: CYP2C19 (Homo sapiens, UniProt P33261)
Sequence (P33261 whole entry): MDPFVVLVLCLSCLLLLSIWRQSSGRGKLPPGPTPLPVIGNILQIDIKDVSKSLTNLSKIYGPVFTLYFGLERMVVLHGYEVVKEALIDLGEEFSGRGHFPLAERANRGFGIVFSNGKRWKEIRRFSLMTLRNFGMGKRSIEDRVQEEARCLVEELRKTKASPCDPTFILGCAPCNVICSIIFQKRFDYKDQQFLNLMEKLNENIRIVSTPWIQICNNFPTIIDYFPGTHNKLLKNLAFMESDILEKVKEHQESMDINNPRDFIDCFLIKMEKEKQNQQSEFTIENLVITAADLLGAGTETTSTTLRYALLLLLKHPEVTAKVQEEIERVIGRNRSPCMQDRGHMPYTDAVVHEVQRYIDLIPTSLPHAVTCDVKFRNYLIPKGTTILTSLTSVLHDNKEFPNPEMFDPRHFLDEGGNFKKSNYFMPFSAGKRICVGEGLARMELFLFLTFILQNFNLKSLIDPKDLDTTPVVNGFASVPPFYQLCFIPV
OBSERVATION_TYPE: IC50 (µM)

1) COc1ccc(-c2ccc(Cn3c(CC(C)(C)C(=O)O)c(SC(C)(C)C)c4cc(OCc5ccccn5)ccc43)cc2)cn1 :: 22

###

Assay: Phase 1 study in healthy human volunteers, plasma pharmacokinetics
Type: in vivo
Conditions: male, human, multiple dose phase, Day 1, 450 mg, oral solution, read-out: AUC0-24 (hr * mM) AVE ± SD
OBSERVATION_TYPE: AUC(0-t)

1. COc1ccc(-c2ccc(Cn3c(CC(C)(C)C(=O)O)c(SC(C)(C)C)c4cc(OCc5ccccn5)ccc43)cc2)cn1 :: 34.2 µM·h

###

Assay: Phase 1 study in healthy human volunteers, plasma pharmacokinetics
Assay type: in vivo
Details: male, human, multiple dose phase, Day 1, 150 mg, oral solution, read-out: t1/2 (hr) AVE ± SD (converted)
OBSERVATION_TYPE: half-life (h)

1. COc1ccc(-c2ccc(Cn3c(CC(C)(C)C(=O)O)c(SC(C)(C)C)c4cc(OCc5ccccn5)ccc43)cc2)cn1 :: 9.2
